- System: SK-OV-3 ovarian
- PROTOCOL TEXT: NCI-60 one-dose screen, 48 h (100 = growth as untreated, 0 = no growth, -100 = all killed)
- MEASUREMENT CONDITIONS: 10 µM unless noted
This is part of a sample that, as a whole, favours compounds with a hit. Of some 83,000 tested, about 20% had one in any assay.
Note to self: growth under 40% means True, ties and anything higher get False.

| MOL | CLASSIFICATION |
| --- | --- |
| Cc1cn(-c2cc(NC(=O)c3cccc(C#Cc4cccc5[nH]nc(N)c45)c3)cc(C(F)(F)F)c2)cn1 | False |
| O=S(=O)(Nc1cc(F)cc(Cl)c1)c1ccc(-c2cnc(C3CC3)o2)cc1 | False |
| CS(=O)(=O)c1ccc(-c2cnn3ccc(-c4cccc(S(=O)(=O)C5CC5)c4)nc23)cc1 | True |

Incoming: Answer whether the compound N#Cc1nc(-c2ccccc2)oc1S(=O)(=O)N1CCN(c2ccccc2)CC1 has growth strictly less than 40%
Outgoing: False

Incoming: Answer whether the compound COC1=CC(c2ccc[nH]2)=N/C1=C\c1[nH]c(C)c(C(=O)OC(C)C)c1C has growth strictly less than 40%
Outgoing: True

----------
- System: HOP-62 NSCLC
- PROTOCOL TEXT: NCI-60 one-dose screen, 48 h
- MEASUREMENT CONDITIONS: 10 µM unless noted
This is part of a sample that, as a whole, favours compounds with a hit. Of some 83,000 tested, about 20% had one in any assay. Calls of active or inactive are those of the source. Rule for the calls: active = growth percent below 10; inactive = the rest.
# output must be one of active, inactive

| COMPOUND | CLASSIFICATION |
| --- | --- |
| C=CCn1c(C)nc2ccc(Nc3nc(Nc4ccc5nc(C)n(CC=C)c5c4)c4ccccc4n3)cc21 | active |
| CCC(C(=O)[C@@H](C)[C@@H](O)[C@H](C)[C@@H]1O[C@@H]([C@@H](CC)C(=O)ONC(=O)c2ccccc2)CC[C@@H]1C)[C@H]1O[C@]2(C=CC(=O)[C@]3(CC[C@@](C)([C@H]4CC[C@](O)(CC)[C@H](C)O4)O3)O2)[C@H](C)C[C@@H]1C (stereo partly drawn) | inactive |

Incoming: Tell me the recorded outcome of this test for CCOc1ccccc1Cn1ccnc1CCc1c(Cl)c(O)cc(O)c1C(=O)OC .
Outgoing: inactive

Incoming: Tell me the recorded outcome of this test for CC(C)C1=NOC(=O)C1=Cc1cn(-c2ccccc2)nc1-c1ccc(F)cc1 .
Outgoing: inactive

Incoming: Tell me the recorded outcome of this test for CN(C)Cc1ccc(O)c(C(=O)O)c1 .
Outgoing: inactive

Incoming: Tell me the recorded outcome of this test for COc1ccc(Nc2nnc(-c3ccc(OC)c(OC)c3)o2)cc1 .
Outgoing: inactive

Incoming: Tell me the recorded outcome of this test for CCN(CC)CCCCCNc1cc(OC(=O)c2ccc(Cl)cc2)cc2cccnc12 .
Outgoing: inactive

Incoming: Tell me the recorded outcome of this test for O=C(Nc1ccccc1O)c1ccc(CNC(=O)c2sccc2Nc2ccnc(C(F)(F)F)c2)cc1 .
Outgoing: inactive

----------
- System: T-47D breast
- PROTOCOL TEXT: NCI-60 one-dose screen, 48 h
- MEASUREMENT CONDITIONS: 10 µM unless noted
The panel holds about 83,000 compounds, 20% with a hit somewhere; the sample as a whole holds those more often. Activity calls are given as the source filed them. The calls were made as follows: active = growth percent below 10; inactive = the rest.
# output must be one of label 1 = active, label 0 = inactive

| MOLECULE | CLASSIFICATION |
| --- | --- |
| Nc1ncnc2c1c(-c1cccc(Cl)c1)nn2CC(=O)N1CCOCC1 | label 0 |
| NC(Cc1ccc(O)c([N+](=O)[O-])c1)C(=O)O (centres undefined) | label 0 |
| CCN1C(=S)N(c2ccccc2)C2C1NN=c1s/c(=C3\C(=O)N(C(C)C)c4ccccc43)c(=O)n12 (centres undefined) | label 0 |
| CC(C)(Sc1cc(C(C)(C)C)c(OC(=O)CCCC(=O)O)c(C(C)(C)C)c1)Sc1cc(C(C)(C)C)c(OC(=O)CCCC(=O)O)c(C(C)(C)C)c1 | label 0 |
| O=C1c2ccccc2-c2c1c1c(=O)[nH]c3ccccc3c1n2Cc1ccccc1 | label 0 |
| COc1cc(-c2csc(NC(=O)c3ccc(N4CCOCC4)c(C(F)(F)F)c3)n2)cc(OC)c1OC | label 1 |
| C#COc1cccc(Nc2c(C#N)cnc3ncc(NC(=O)CCl)cc23)c1 | label 1 |
| COc1cc2oc(-c3cccc(NC(=O)c4ccccc4)c3)cc(=O)c2c(OC)c1OC | label 0 |

Now, please, on to the next molecule.
Incoming: Tell me the recorded outcome of this test for O=C(C[C@]1(O)C(=O)Nc2ccccc21)c1cccc(C(F)(F)F)c1 .
Outgoing: label 0

----------
- Tested on: A549/ATCC NSCLC
- PROTOCOL TEXT: NCI-60 one-dose screen, 48 h (100 = growth as untreated, 0 = no growth, -100 = all killed)
- MEASUREMENT CONDITIONS: 10 µM unless noted
The panel holds about 83,000 compounds, 20% with a hit somewhere; the sample as a whole holds those more often. Activity calls are given as the source filed them. The calls were made as follows: active = growth percent below 10; inactive = the rest.
MEASUREMENT TYPE: growth

Recorded growth, per entry:
| COMPOUND | MEASUREMENT TYPE | RESULT |
| --- | --- | --- |
| COC1=CC(c2ccc[nH]2)=N/C1=C\c1[nH]c(C)c(C)c1CCC(=O)OCc1ccccc1 | growth | 10.1% (inactive) |
| CN(C)c1ccc(C(=O)OCCCCCCl)cc1 | growth | 100% (inactive) |
| Cc1nc2sc(C(=O)Nc3cccc(Br)c3)c(N)c2cc1C(O)c1ccccc1 (stereo not given) | growth | 20.4% (inactive) |
| Oc1c(Br)cc(Br)c2ccc(Cn3cc(-c4ccccc4C(F)(F)F)nn3)nc12 | growth | 99.6% (inactive) |

Incoming: Reported growth for CCOC(=O)C#Cc1c(C(=O)OCC)nnn1Cc1ccc([N+](=O)[O-])cc1 : what is it?
Outgoing: 96.1% (inactive)

Incoming: Reported growth for CCOC(=O)Cc1cnc(N/N=C(\C)c2cc3ccccc3o2)s1 : what is it?
Outgoing: 91.5% (inactive)

----------
- System: SR leukemia
- PROTOCOL TEXT: NCI-60 one-dose screen, 48 h
- MEASUREMENT CONDITIONS: 10 µM unless noted
The panel holds about 83,000 compounds, 20% with a hit somewhere; the sample as a whole holds those more often. Calls of active or inactive are those of the source. The calls were made as follows: active = growth percent below 10; inactive = the rest.
# output must be one of yes (1) = active, no (0) = inactive

Completed entries (count: 6):
| COMPOUND | CLASSIFICATION |
| --- | --- |
| O=C(N/N=C/c1ccc(Cl)cc1)c1[nH]c2ccc(Cl)cc2c1-c1ccccc1 | no (0) |
| Cc1ccc(-c2nc(N3CCCNCC3)c3oc(-c4ccc(C)cc4)nc3n2)cc1 | yes (1) |
| O=C(COc1ccc(-c2nc3cc(Cl)c(Cl)cc3[nH]2)cc1)N=Nc1c(O)[nH]c2ccc(Cl)cc12 | no (0) |
| Cn1cc(-c2csc(-c3c[nH]c4ccccc34)n2)c2cnccc21 | yes (1) |
| Fc1cc2c(cc1Cl)N(c1ncnc3ccc(-c4ccc5n[nH]nc5c4)cc13)CC2 | no (0) |
| COc1ccc(/C=N/NC(=O)c2ccc(-n3cc(-c4ccccc4)nn3)cc2)cc1OC | no (0) |

Incoming: Tell me the recorded outcome of this test for N#CC1=C(N)Oc2c(sc3c(Br)cccc23)C1c1ccc(Cl)cc1 (stereo not given) .
Outgoing: yes (1)

Incoming: Tell me the recorded outcome of this test for C=CC(=O)N1CCN(c2cccc(Oc3nccc(Nc4nnc(-c5ccc(Br)cc5)s4)n3)c2)CC1 .
Outgoing: no (0)

Incoming: Tell me the recorded outcome of this test for CCOC(=O)n1ccn(C)c1=S .
Outgoing: no (0)

Incoming: Tell me the recorded outcome of this test for COc1cc2c(cc1OC)C(C)N(S(N)(=O)=O)CC2 (stereo not given) .
Outgoing: no (0)

----------
- System: SF-539 CNS
- PROTOCOL TEXT: NCI-60 one-dose screen, 48 h (100 = growth as untreated, 0 = no growth, -100 = all killed)
- MEASUREMENT CONDITIONS: 10 µM unless noted
The panel holds about 83,000 compounds, 20% with a hit somewhere; the sample as a whole holds those more often.
MEASUREMENT TYPE: growth (%)
Answer in %, number only, no unit symbol.

Recorded growth, per entry:
| COMPOUND | MEASUREMENT TYPE | ENDPOINT UNIT | NUMERIC READOUT |
| --- | --- | --- | --- |
| COC(=O)c1nc(-c2ccc(C)cc2)oc1S(=O)(=O)c1cccc(OC)c1 | growth | % | 101 |
| O=c1c2cccc3c(N4CCCC4)ccc(c32)c2nc3ccccc3n12 | growth | % | 91.3 |
| c1cc2c(ccc3[nH]c(-c4ccc5[nH]ncc5c4)c4c(c32)CCCC4)n1 | growth | % | 62.9 |
| N#CSCC1CC(O)(c2ccccc2)CC(c2ccc(F)cc2)O1 (stereo unspecified) | growth | % | 21 |
| O=C(Nc1ccccc1O)c1ccc(CNC(=O)c2sccc2Nc2ccnc(C(F)(F)F)c2)cc1 | growth | % | 48.9 |
| CC1=C2[C@@H](CC1)[C@]1(C)O[C@@](C(C)C)(C[C@H]1OC(=O)[C@H](C)O)[C@H]2OC(=O)/C=C/c1ccccc1 | growth | % | 96.8 |
| Cc1cc(C(=O)O)c(C)n1-c1cccc(C(=O)O)c1 | growth | % | 102 |
| COc1ccc(C(O)c2cc3c(N)c(C(=O)Nc4cccc(Br)c4)sc3nc2C)cc1 (stereo unspecified) | growth | % | -19.9 |
| O=C(/C=C(/C=C/c1ccc2[nH]ccc2c1)OB(F)F)/C=C/c1ccc2[nH]ccc2c1 | growth | % | -7.54 |
| CC(=O)O[C@@H]1C[C@]2(C(C)C)O[C@@]1(C)[C@@H]1CCC(C)=C1[C@@H]2OC(=O)/C=C/c1ccccc1 | growth | % | 101 |

Incoming: Reported growth for CSc1nc2ccccc2cc1/C=C1/C=C(c2ccccc2)NC1=O : what is it?
Outgoing: 96.4

Incoming: Reported growth for COc1ccc(-c2ccc(=O)oc2-c2cc(OC)c(OC)c(OC)c2)cc1O : what is it?
Outgoing: -19.2

Incoming: Reported growth for CCCCCCCCCc1ccc(OCCOCCOCCOCCOCCOCCOCCOCCOCCO)cc1 : what is it?
Outgoing: 29

Incoming: Reported growth for CCC(=C(c1ccc(OCCN2CCCCC2)cc1)c1ccc(OCCN2CCCCC2)cc1)c1ccc(Cl)cc1 : what is it?
Outgoing: -97.3

Incoming: Reported growth for COC1=CC(c2ccc[nH]2)=N/C1=C\c1[nH]c(C)c(CC(=O)NCc2ccccc2)c1C : what is it?
Outgoing: 2.49

Incoming: Reported growth for COc1cc(NS(=O)(=O)c2ccc(-c3cnc(C4CC4)o3)cc2)ccc1F : what is it?
Outgoing: 1.5
